The measurements presented in this section are drawn from PubChem BioAssay (NCI).

Field: TGI. Provide a value for each of the molecules that follow.
# System: HT29 colon
# Test details: NCI tumour cell line growth inhibition, 48 h

Solved entries:
- CC(=O)O[C@]12CCCCCCC1C1(O)C(O)CCC[C@H]12 (stereo not given in full): > 100 µM
- C/C(=N\NS(=O)(=O)c1ccc(C)cc1)c1ccc[n+]([O-])n1: > 100 µM
- CC(C)=CC(=O)O[C@@H]1CC(C)(C)CC2C3=CCC4[C@]56CC[C@](O)(OC5)C(C)(C)C6CC[C@@]4(C)C3(C)CC[C@]21C(=O)O (stereo not given in full): > 100 µM

# batch size: 7; output TGI per entry
1. O=C1c2cc([N+](=O)[O-])ccc2NC2C(O)c3ccccc3N12 (stereo not given)
2. Oc1cc2cc(-c3ccccc3)[nH]c2c2ccccc12
3. COC(=O)c1c(C)oc2ccc(OC(C)=O)cc12
4. CC(=O)N[C@@H](Cc1ccc(O)cn1)C(=O)NCc1ccc2c(c1)OCO2
5. NC1=NS(=O)(=O)N=C(N)C1=Cc1ccc([N+](=O)[O-])o1
6. COc1cc(C2C(Cl)C(=O)N2c2ccc(Br)cc2)cc(I)c1O (stereo not given)
7. CCN(CC)CCOc1ccc(/C=C2\C[C@H]3[C@@H]4CC=C5C[C@@H](OC(C)=O)CC[C@]5(C)[C@H]4CC[C@]3(C)[C@H]2OC(C)=O)cc1OC

// result
["> 100 µM", "> 100 µM", "> 100 µM", "> 100 µM", "34 µM", "> 100 µM", "> 50 µM"]

###

# System: MCF7 breast
# Test details: NCI tumour cell line growth inhibition, 48 h
Reported property: TGI

// known answers, use as guide
- COc1ccc2c(c1O)[C@@]13C=C(O)C(=O)C=C1[C@@H](C2)N(C)CC3: > 100 µM
- CN(C)CCCn1c2ccccc2c2cnccc21: > 100 µM
- c1ccc2c3c(ccc2c1)CSCc1ccc2ccccc2c1-3: > 100 µM
- CCOC(=O)c1[nH]c2c(c1C)-c1[nH]c(=O)c(S(=O)(=O)c3ccccc3)cc1SC2: > 100 µM
- COc1ccc(C2=CC(c3cc(OC)c(OC)c(OC)c3)n3ncnc3N2)cc1 (stereo unspecified): 13.7 µM
- CC(C)(C)OC(=O)NC(Cc1ccccc1)C(=O)N[C@H]1c2ccsc2/C(=N/O)[C@H]1O (stereo partly specified): > 100 µM
- O=C1c2ccccc2S(=O)(=O)c2ccccc21: > 100 µM
- COc1ccc(CNc2nc(NCc3ccc(OC)cc3)nc(NC3CCCCC3)n2)cc1: 0.533 µM
- CCOC(=O)/C=C1\Nc2ccccc2C12CCc1c([nH]c3ccccc13)C2C(=O)OCC (stereo unspecified): > 100 µM
- O=C1c2ccccc2-c2ccc(NC(=O)C3CCCCC3C(=O)O)cc21 (stereo unspecified): > 100 µM

Look at each compound and report its TGI.
1. COc1cc(C2C3=C(COC3=O)N(CCO)c3cc4c(cc32)CCC4)cc(OC)c1O (stereo unspecified)
2. CCCCCCCCCCCCCCCCOCC(CC(F)(F)P(=O)(O)O)OC(C)=O (stereo unspecified)
3. c1ccc2c(c1)nc(NCCN1CCNCC1)c1c3ccccc3[nH]c21
4. COc1ccc(Cn2nc(OCc3ccccn3)c3cc([N+](=O)[O-])ccc32)cc1
5. COc1ccccc1C1C(C#N)=C(N)OC2=C1C(=O)CCC2 (stereo unspecified)
6. Cc1ccc(S(=O)(=O)Nn2c(-c3ccccc3)c(C#N)c(-c3ccc([N+](=O)[O-])cc3)c(C#N)c2=O)cc1
7. CN(C)c1ccc(C(=NNC(=O)c2cc3ccccc3[nH]2)c2ccc(N(C)C)cc2)cc1

// result
1: > 21.4 µM; 2: > 50 µM; 3: 0.709 µM; 4: > 100 µM; 5: > 100 µM; 6: > 100 µM; 7: > 51 µM

Fill in TGI for each of the 4 compounds listed.
1. COc1ccc(C[C@H]2C[C@@H](O)[C@@H](C)C/C=C/Cc3cccc(O)c3C(=O)O2)cn1
2. CC(C)=CCN(N=O)c1ncnc2nc[nH]c12
3. CCCCCCCCCCCCCCCCP(=O)(O)OP(=O)(O)OCC1OC(n2ccc(N)nc2=O)C(O)C1O (stereo unspecified)
4. COc1ccc(S(=O)(=O)N/N=C/C(=O)O)cc1

// result
1. 66.6 µM
2. > 100 µM
3. > 100 µM
4. > 1210 µM
